Sourced from patent US12383556B2

experiment: First-in-human Part 2 multiple ascending dose q.d. blood and urine PK; assay type: in vivo; details: human, whole blood, oral, 50 mg, 50 mg qd, Day 12, blood; Median (Min-Max)
READOUT LABEL: AUC(0-inf) (ng·h/mL)

INSERT INTO assay_data (chemical_string, endpoint_result) VALUES
  ('C=CC(=O)N(C)CCOc1c(N)ncnc1-c1cc(F)cc(NC(=O)c2ccc(C3CC3)cc2F)c1C', 181);

---

experiment: First-in-human Part 2 multiple ascending dose q.d. blood and urine PK; type: in vivo; conditions: human, whole blood, oral, 400 mg, 400 mg qd, Day 12, blood; Median (Min-Max)
READOUT LABEL: AUC(0-inf) (ng·h/mL)

INSERT INTO measurements (chemical_string, endpoint_result) VALUES
  ('C=CC(=O)N(C)CCOc1c(N)ncnc1-c1cc(F)cc(NC(=O)c2ccc(C3CC3)cc2F)c1C', 1210);

---

experiment: First-in-human Part 2 multiple ascending dose q.d. blood and urine PK; type: in vivo; settings: human, blood, oral, 600 mg, 600 mg qd, Day 1, blood; Median (Min-Max); read-out: AUClast
READOUT LABEL: AUC(0-t) (ng·h/mL)

INSERT INTO results (chemical_string, endpoint_result) VALUES
  ('C=CC(=O)N(C)CCOc1c(N)ncnc1-c1cc(F)cc(NC(=O)c2ccc(C3CC3)cc2F)c1C', 931);

---

test: First-in-human Part 2 multiple ascending dose q.d. blood and urine PK; type: in vivo; settings: human, blood, oral, 100 mg, 100 mg qd, Day 12, blood; Median (Min-Max); read-out: Vss/F
READOUT LABEL: Vd/F (L)

INSERT INTO measurements (compound, endpoint_result) VALUES
  ('C=CC(=O)N(C)CCOc1c(N)ncnc1-c1cc(F)cc(NC(=O)c2ccc(C3CC3)cc2F)c1C [Compound of Formula (I)]', 338);

---

experiment: First-in-human Part 2 multiple ascending dose q.d. blood and urine PK; assay type: in vivo; details: human, whole blood, oral, 50 mg, 50 mg qd, Day 12, blood; Mean ± SD; read-out: AUClast
READOUT LABEL: AUC(0-t) (µg·h/mL)

INSERT INTO assay_data (chemical_string, readout_label, result_units, endpoint_result) VALUES
  ('C=CC(=O)N(C)CCOc1c(N)ncnc1-c1cc(F)cc(NC(=O)c2ccc(C3CC3)cc2F)c1C', 'AUC(0-t)', 'µg·h/mL', 0.207);

---

test: First-in-human Part 1 single ascending dose blood PK; type: in vivo; conditions: human, blood, oral; single ascending doses; read-out: mean residence time (MRT) in the circulation
READOUT LABEL: MRT

INSERT INTO results (compound, endpoint_result) VALUES
  ('C=CC(=O)N(C)CCOc1c(N)ncnc1-c1cc(F)cc(NC(=O)c2ccc(C3CC3)cc2F)c1C [Compound of Formula (I)]', '1 to 5 h');

---

test: First-in-human Part 2 multiple ascending dose q.d. blood and urine PK; assay type: in vivo; conditions: human, blood, oral, 400 mg, 400 mg qd, Day 12, blood; Mean ± SD; read-out: Vss/F
READOUT LABEL: Vd/F (L)

INSERT INTO results (chemical_string, readout_label, result_units, endpoint_result) VALUES
  ('C=CC(=O)N(C)CCOc1c(N)ncnc1-c1cc(F)cc(NC(=O)c2ccc(C3CC3)cc2F)c1C', 'Vd/F', 'L', 4400);
